system: HIV-1; experiment: Cytoprotection of HIV-1-infected CEM-SS cells, viability by XTT and/or BCECF, 6 days; type: cell-based; conditions: Human immunodeficiency virus 1, CEM-SS, acetate salts, XTT assay, HIV-1, side-by-side comparison (Table 4); read-out: EC50 (anti-HIV-1 activity)
pEC50: −log10 of the molar value.

# Compound, Target desc, pEC50
measured = [
    ("COc1cc(C)cc2c(-c3c(O)cc(O)c4c3C[C@@H](C)N[C@@H]4C)cc(-c3cc(-c4c(O)cc(O)c5c4C[C@@H](C)N[C@@H]5C)c4cc(C)cc(OC)c4c3O)c(O)c12 [Michellamine A]", "HIV-1", 5.02),
]
